Where do the numbers come from? From patent US11866518B2.

TESTED_TARGET: TSLP (Homo sapiens)
Sequence (Q969D9 29-159): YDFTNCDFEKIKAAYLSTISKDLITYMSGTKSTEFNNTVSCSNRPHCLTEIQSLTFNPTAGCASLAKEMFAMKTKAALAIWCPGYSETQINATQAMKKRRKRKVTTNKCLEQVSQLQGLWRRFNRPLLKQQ
TEST_SUMMARY: Human TSLP Surface Plasmon Resonance (SPR) binding assay
CONDITION_DETAILS: biotinylated human TSLP immobilized on streptavidin chip; 20° C.; steady-state or kinetic 1:1 fit; read-out: hTSLP SPR Kd
Field: pKd. Provide a value for each of the compounds that follow.
One number for each entry, as −log10 of the molar value.

COMPOUND	pKd
CC(C)C[C@@H]1NC(=O)[C@H](CO)NC(=O)[C@@H]2CCCN2C(=O)[C@@H](NC(=O)[C@H](C)N)CSCCC(=O)N2CN3CN(C2)C(=O)CCSC[C@H](NC(=O)[C@H]([C@@H](C)O)NC(=O)[C@H](Cc2c[nH]c4ccccc24)NC(=O)[C@@H]2CCCN2C(=O)[C@H](CC(=O)O)NC1=O)C(=O)N[C@@H](CCC(N)=O)C(=O)N[C@@H](CO)C(=O)N[C@@H](Cc1c[nH]c2ccccc12)C(=O)N[C@@H](Cc1ccc(O)cc1)C(=O)N[C@@H](CCC(=O)O)C(=O)N[C@H](C(=O)N[C@@H](C)C(N)=O)CSCCC3=O [Example 162, A-(SEQ ID NO: 120)-A]	5.82

IN: Field request: pKd | item: CC(C)C[C@@H]1NC(=O)[C@H](Cc2c[nH]c3ccccc23)NC(=O)[C@H](CCC(N)=O)NC(=O)[C@@H](N)CSCCC(=O)N2CN3CN(C2)C(=O)CCSC[C@H](NC(=O)[C@H](CC(=O)O)NC(=O)[C@H](CCC(=O)O)NC1=O)C(=O)N[C@@H](Cc1c[nH]c2ccccc12)C(=O)N[C@@H](CCCNC(N)=O)C(=O)NCC(=O)N[C@@H](Cc1ccccc1)C(=O)N[C@H](C(N)=O)CSCCC3=O [Example 102, (SEQ ID NO: 76)]
OUT: 6.77

====

Kindly supply the reported pKd values for the records listed here.
TESTED_TARGET: TSLP (Homo sapiens)
TEST_SUMMARY: Human TSLP Surface Plasmon Resonance (SPR) binding assay
CONDITION_DETAILS: biotinylated human TSLP immobilized on streptavidin chip; 20° C.; steady-state or kinetic 1:1 fit; read-out: hTSLP SPR Kd
Answers are plain numbers, as −log10 of the molar value.

MOLECULE	pKd
CC(C)C[C@@H]1NC(=O)[C@H](Cc2c[nH]c3ccccc23)NC(=O)[C@H](CCC(N)=O)NC(=O)[C@@H](N)CSCCC(=O)N2CN3CN(C2)C(=O)CCSC[C@H](NC(=O)[C@H](CC(=O)O)NC(=O)[C@H](CCC(=O)O)NC1=O)C(=O)N[C@@H](Cc1c[nH]c2ccccc12)C(=O)N[C@@H](CN)C(=O)NCC(=O)N[C@@H](Cc1ccccc1)C(=O)N[C@H](C(N)=O)CSCCC3=O [Example 156, (SEQ ID NO: 114)]	5.48

IN: State the recorded pKd for this entry: CC(C)C[C@@H]1NC(=O)[C@H](Cc2c[nH]c3ccccc23)NC(=O)[C@H](Cc2c[nH]c3ccccc23)NC(=O)[C@H]([C@@H](C)O)NC(=O)[C@H](CCC(=O)O)NC(=O)[C@@H]2CSCCC(=O)N3CN(CN(C3)C(=O)CCSC[C@H](N)C(=O)N[C@@H]([C@@H](C)O)C(=O)N[C@@H](CCC(=O)O)C(=O)N[C@@H](CC(C)C)C(=O)N[C@@H](CC(=O)O)C(=O)N3CCC[C@H]3C(=O)N[C@@H](Cc3c[nH]c4ccccc34)C(=O)N[C@@H]([C@@H](C)O)C(=O)N2)C(=O)CCSC[C@@H](C(N)=O)NC1=O [Example 185, (SEQ ID NO: 121)]
OUT: 6.59
